Provide the reported pIC50 of each item.
# subject-of-test: Recombinant human cathepsin S (CatS) (Homo sapiens, UniProt P25774)
# Sequence (P25774 115-331): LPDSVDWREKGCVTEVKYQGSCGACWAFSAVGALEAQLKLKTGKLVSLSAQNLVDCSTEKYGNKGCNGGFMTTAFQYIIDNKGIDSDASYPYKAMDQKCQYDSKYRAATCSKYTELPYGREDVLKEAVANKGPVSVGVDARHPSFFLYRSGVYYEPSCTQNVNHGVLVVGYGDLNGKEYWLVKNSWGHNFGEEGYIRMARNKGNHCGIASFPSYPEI
# experimental-details: Recombinant human cathepsin S (CatS) inhibition assay, fluorogenic substrate Z-Valine-Valine-Arginine-AMC
Answers are plain numbers, as −log10 of the molar value.

// worked examples, pIC50 included
[[record]]
compound = "NC(=O)N1CCc2c(c(-c3ccc(Cl)c(C#Cc4ccc(Cl)c(C(=O)NCC5CCCNC5)c4)c3)nn2CCCN2CCSCC2)C1 (stereo not drawn) [Example 583]"
observed = 7.52

[[record]]
compound = "NC(=O)N1CCc2c(c(-c3ccc(Cl)c(C#Cc4ccc(CNCc5ccc(Cl)cc5)cc4)c3)nn2CCCN2CCN(c3cccc[n+]3[O-])CC2)C1 [Example 454]"
observed = 7.40


In the following, a different compound is considered.
Prompt: Fill in: pIC50 of CC1COCCN1CCCn1nc(-c2ccc(Cl)c(C#Cc3ccc(Cl)c(CNCC4CCCO4)c3)c2)c2c1CCN(C(N)=O)C2 (stereo in doubt) [Example 223] is ___
Response: 7.70

###

# subject-of-test: Recombinant human cathepsin S (CatS) (Homo sapiens, UniProt P25774)
# experimental-details: Recombinant human cathepsin S (CatS) inhibition assay, fluorogenic substrate Z-Valine-Valine-Arginine-AMC
# measurement-context: CatS IC50
reported-property: IC50 (nM)
Answers are plain numbers, in nM.

[[record]]
smiles_entry = "CC(C)(C)OC(=O)N1CCN(CCCn2nc(-c3ccc(Cl)c(C#Cc4ccc(CNCc5ccc(Cl)cc5)cc4)c3)c3c2CCN(S(C)(=O)=O)C3)CC1"
observed = 90

[[record]]
smiles_entry = "CN(Cc1ccc(Cl)cc1)Cc1ccc(C#Cc2cc(-c3nn(CCCN4CCSCC4)c4c3CN(S(C)(=O)=O)CC4)ccc2Cl)cc1"
observed = 660


Below is a list of compounds. For each, state its recorded IC50.
1. NC(=O)C(=O)N1CCc2c(c(-c3ccc(Cl)c(C#Cc4ccc(CNCc5ccc(Cl)cc5)cc4)c3)nn2CCCN2CCC(C(N)=O)CC2)C1
2. CNCCCNC(=O)c1ccc(C#Cc2cc(-c3nn(CCCN4CCSCC4)c4c3CN(C(N)=O)CC4)ccc2Cl)cc1
3. NC(=O)N1CCc2c(c(-c3ccc(Cl)c(C#Cc4ccc5c(c4)CN(Cc4ccc(Cl)cc4)CC5)c3)nn2CCCN2CCOCC2)C1
4. NC(=O)N1CCc2c(c(-c3ccc(Cl)c(C#Cc4ccc(C(=O)N5CC[C@@H](O)C5)cc4)c3)nn2CCCN2CCSCC2)C1
5. CS(=O)(=O)N1CCc2c(c(-c3ccc(Cl)c(C#Cc4ccc(CNCCc5cccs5)cc4)c3)nn2CCCN2CCOCC2)C1

Response:
[70, 80, 150, 500, 270]

###

# subject-of-test: Recombinant human cathepsin S (CatS) (Homo sapiens)
# experimental-details: Recombinant human cathepsin S (CatS) inhibition assay, fluorogenic substrate Z-Valine-Valine-Arginine-AMC
reported-property: log10 of IC50 (log10 of the value in nM)
Please keep in mind that the values are log10 of IC50 expressed in nM.

[[record]]
compound = "C[C@H]1COCCN1CCCn1nc(-c2ccc(Cl)c(C#Cc3ccc(Cl)c(CNCC(C)(C)O)c3)c2)c2c1CCN(C(=O)C(N)=O)C2"
observed = 1.48


Below is a list of compounds. For each, state its recorded log10 of IC50.
1. CS(=O)(=O)N1CCc2c(c(-c3ccc(Cl)c(C#Cc4ccc5c(c4)CNCC5)c3)nn2CCCN2CCN(c3ccccc3)CC2)C1
2. CS(=O)(=O)N1CCc2c(c(-c3ccc(Cl)c(CCCNS(=O)(=O)Cc4ccccc4)c3)nn2CCCN2CCOCC2)C1
3. CS(=O)(=O)N1CCc2c(c(-c3ccc(Cl)c(C#Cc4ccc(O)cc4)c3)nn2CCCN2CCOCC2)C1
4. NC(=O)C(=O)N1CCc2c(c(-c3ccc(Cl)c(C#Cc4ccc(Cl)c(C(=O)N[C@@H](CO)c5ccccc5)c4)c3)nn2CCCN2CCSCC2)C1
5. NC(=O)N1CCc2c(c(-c3ccc(Cl)c(C#Cc4ccc(CNCc5ccc(Cl)cc5)cc4)c3)nn2C[C@@H](O)CN2CCSCC2)C1

Response:
1. 1.00
2. 3.74
3. 2.40
4. 1.48
5. 1.60

###

# subject-of-test: Recombinant human cathepsin S (CatS) (Homo sapiens, UniProt P25774)
# experimental-details: Recombinant human cathepsin S (CatS) inhibition assay, fluorogenic substrate Z-Valine-Valine-Arginine-AMC
reported-property: IC50 (nM)
Give bare numbers, in nM.

// worked examples, IC50 included
[[record]]
compound = "CS(=O)(=O)N1CCc2c(c(-c3ccc(Cl)c(C#Cc4cccc(CNCC5CCCO5)c4)c3)nn2CCCN2CCOCC2)C1 (stereo not shown) [Example 510]"
reported_property = "IC50"
observed = 450

[[record]]
compound = "C[C@H]1COCCN1CCCn1nc(-c2ccc(Cl)c(C#Cc3ccc4c(c3)CN(C3CC3)CC4)c2)c2c1CCN(S(C)(=O)=O)C2 [Example 277]"
reported_property = "IC50"
observed = 200

[[record]]
compound = "CN(C)CCCCc1cc(-c2nn(CCCN3CCC(N4CCCC4=O)CC3)c3c2CN(S(C)(=O)=O)CC3)ccc1Cl [Example 312]"
reported_property = "IC50"
observed = 5620


Prompt: Fill in: IC50 of CS(=O)(=O)N1CCc2c(c(-c3ccc(Cl)c(C#Cc4ccc(CNCc5ccc(Cl)cc5)cc4)c3)nn2CCCN2CCOCC2CO)C1 (stereo not shown) [Example 419] is ___
Response: 180

###

# subject-of-test: Recombinant human cathepsin S (CatS) (Homo sapiens, UniProt P25774)
# experimental-details: Recombinant human cathepsin S (CatS) inhibition assay, fluorogenic substrate Z-Valine-Valine-Arginine-AMC;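 also: Baculovirus-expressed CatS in pH 5.0 sodium acetate buffer with DTT and NaCl, fluorescence read each minute over 20 min, inhibition derived from rate slope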
# measurement-context: CatS IC50
Provide the reported IC50 of each item.
The answer consists of two parts: a number and, after it, its unit.

// worked examples, IC50 included
[[record]]
compound = "COc1cccc(CNCc2ccc(C#Cc3cc(-c4nn(CCCN5CCSCC5)c5c4CN(C(N)=O)CC5)ccc3Cl)cc2)c1 [Example 534]"
observed = "0.09 µM"

[[record]]
compound = "C=CCN1CCc2cc(C#Cc3cc(-c4nn(CCCN5CCOCC5)c5c4CN(S(C)(=O)=O)CC5)ccc3Cl)ccc2C1 [Example 527]"
observed = "0.3 µM"

[[record]]
compound = "CC1(C)CCN(CCCn2nc(-c3ccc(Cl)c(C#Cc4ccc(CNCc5ccc(Cl)cc5)cc4)c3)c3c2CCN(S(C)(=O)=O)C3)CC1 [Example 355]"
observed = "0.11 µM"


Below is a list of compounds. For each, state its recorded IC50.
1. CS(=O)(=O)N1CCc2c(c(-c3ccc(Cl)c(C#Cc4ccc(CNCc5ccc(Cl)cc5)cc4)c3)nn2CCCN2CCC(CO)CC2)C1 [Example 337]
2. CS(=O)(=O)N1CCc2c(c(-c3ccc(Cl)c(C#Cc4ccc(Cl)c(CNC5CCCC5)c4)c3)nn2CCCN2CCCCC2)C1 [Example 597]
3. CC(C)CC#Cc1cc(-c2nn(CCCN3CCOCC3)c3c2CN(S(C)(=O)=O)CC3)ccc1Cl [Example 51]
4. CS(=O)(=O)N1CCc2c(c(-c3ccc(Cl)c(C#Cc4ccc(CNCc5ccccc5)c(Cl)c4)c3)nn2CCCN2CCOCC2)C1 [Example 545]

Response:
1. 0.07 µM
2. 0.04 µM
3. 8.25 µM
4. 0.27 µM

Below is a list of compounds. For each, state its recorded IC50.
1. CS(=O)(=O)N1CCc2c(c(-c3ccc(Cl)c(C#Cc4ccc(CNCc5ccsc5)cc4)c3)nn2CCCN2CCOCC2)C1 [Example 422]
2. CS(=O)(=O)N1CCc2c(c(-c3ccc(Cl)c(C#Cc4ccc(CNCc5ccccn5)cc4)c3)nn2CCCN2CCOCC2)C1 [Example 408]
3. CSc1ccc(CNCc2ccc(C#Cc3cc(-c4nn(CCCN5CCSCC5)c5c4CN(C(N)=O)CC5)ccc3Cl)cc2)cc1 [Example 550]
4. Cc1cc(CNCc2ccc(C#Cc3cc(-c4nn(CCCN5CCOCC5)c5c4CN(S(C)(=O)=O)CC5)ccc3Cl)cc2)c(C(F)(F)F)o1 [Example 426]

Response:
1: 0.17 µM; 2: 0.28 µM; 3: 0.1 µM; 4: 0.39 µM

###

Provide the reported pIC50 of each item.
# subject-of-test: Recombinant human cathepsin S (CatS) (Homo sapiens)
# experimental-details: Recombinant human cathepsin S (CatS) inhibition assay, fluorogenic substrate Z-Valine-Valine-Arginine-AMC
Give bare numbers, as −log10 of the molar value.

[[record]]
smiles_entry = "CS(=O)(=O)N1CCc2c(c(-c3ccc(Cl)c(CCCN4CCCCC4)c3)nn2CCCN2CCC(N3CCCC3=O)CC2)C1"
observed = 6.08

[[record]]
smiles_entry = "CS(=O)(=O)N1CCc2c(c(-c3ccc(Cl)c(CCc4cccc(O)c4)c3)nn2CCCN2CCOCC2)C1"
observed = 6.04


Prompt: Fill in: pIC50 of CS(=O)(=O)N1CCc2c(c(-c3ccc(Cl)c(CCc4ccc(Oc5ccccc5)cc4)c3)nn2CCCN2CCOCC2)C1 is ___
Response: 5.97

Where do these numbers come from? They come from patent US20080200454A1.
